target entity: UniProt Q9Y2T6
Sequence (Q9Y2T6 whole entry): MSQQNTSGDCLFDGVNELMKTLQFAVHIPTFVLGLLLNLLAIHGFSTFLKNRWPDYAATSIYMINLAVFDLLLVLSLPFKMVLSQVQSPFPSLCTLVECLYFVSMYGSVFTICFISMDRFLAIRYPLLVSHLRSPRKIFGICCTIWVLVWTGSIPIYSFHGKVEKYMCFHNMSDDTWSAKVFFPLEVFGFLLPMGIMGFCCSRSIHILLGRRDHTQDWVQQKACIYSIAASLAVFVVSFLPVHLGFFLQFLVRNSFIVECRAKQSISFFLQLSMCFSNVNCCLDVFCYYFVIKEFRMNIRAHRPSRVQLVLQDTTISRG
test protocol: GPR55 antagonists blocking LPI-driven arrestin recruitment, primary screen, imaging, U2OS, beta-arrestin-GFP, LPI agonist (AID 2013);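 note: antagonist potency measured as reduced agonist-driven arrestin aggregation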
Format: functional
Calls of active or inactive are those of the source.
readout label: IC50

Assay UniProt Q9Y2T6, sample `Cc1n[nH]c(-c2ccc(O)cc2O)c1Oc1ccccc1` , IC50 read: 8310 nM (active)

Assay UniProt Q9Y2T6, sample `COc1ccc(NC(=O)CN2CCN(C3c4ccccc4-c4ccccc43)CC2)c(OC)c1` , IC50 read: 2190 nM (active)

Assay UniProt Q9Y2T6, sample COc1ccc(OCC(O)Cn2c(=N)n(Cc3ccccc3)c3ccccc32)cc1 (centres undefined) , IC50 read: 3610 nM (active)

Assay UniProt Q9Y2T6, sample CCOC(=O)c1c(NC(=O)C2=C(C)N=C(S)NC2c2ccc(CC)cc2)sc(C)c1C (centres undefined) , IC50 read: 1640 nM (active)

====

System: P388/ADR
test protocol: cells
Type: functional
protocol conditions: Mus musculus, P388/ADR
Activity calls are given as the source filed them.
Valid outcomes are listed here; reply with one: 1 (active), 0 (inactive)

Record request — test call for Nc1ncn(C2OC(CO)C(O)C2O)c(=O)n1 (stereo not given)
1

Record request — test call for `CC1=C(O)C(=O)[C@@H]2O[C@@H]2C1=O`
1

Record request — test call for `CC[C@](C)(O)C(=O)O[C@H]1C(=O)O[C@@H]2C[C@H]3C(C)=CC(=O)[C@@H](O)[C@]3(C)[C@H]3[C@@]4(O)OC[C@]32[C@@H]1[C@@H](C)[C@H]4O`
1

Record request — test call for Cc1c(-c2ccc(-c3ccccc3F)cc2)nc2ccc(F)cc2c1C(=O)O [BREQUINAR SODIUM]
1

Record request — test call for `O=P1(Oc2ccc(Cl)cc2Cl)Oc2cc3ccccc3cc2O1`
0

====

target entity: DNA dC->dU-editing enzyme APOBEC-3A (Homo sapiens, UniProt P31941)
Sequence (P31941 whole entry): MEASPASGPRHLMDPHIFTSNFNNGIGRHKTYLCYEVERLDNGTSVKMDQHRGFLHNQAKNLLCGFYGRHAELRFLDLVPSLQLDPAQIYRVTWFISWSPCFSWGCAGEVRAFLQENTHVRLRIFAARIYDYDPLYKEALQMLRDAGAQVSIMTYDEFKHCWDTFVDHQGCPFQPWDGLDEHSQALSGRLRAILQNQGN
test protocol: APOBEC3A DNA deaminase inhibitors, dose response, biochemical (AID 504722)
Assay type: functional
The source made the active and inactive calls.
Valid outcomes are listed here; reply with one: t for active, f for inactive

Record request — test call for `COc1ccc(/C=N/n2c(S)nnc2-c2cc(C)[nH]n2)cc1`
f

Record request — test call for `Sc1nnc(-c2ccncc2)n1/N=C/C=C/c1ccco1`
t

Record request — test call for `COc1ccc(-c2n[nH]c(=S)[nH]2)cc1OC`
f

Record request — test call for `CC(/C=N/n1c(S)nnc1-c1ccncc1)=C\c1ccco1`
f

====

target entity: Heat shock protein HSP 90-alpha (Homo sapiens, UniProt P07900)
Type: functional, organism-based
Calls of active or inactive are those of the source.
readout label: AC50

Assay Heat shock protein HSP 90-alpha (Homo sapiens, UniProt P07900), sample `Cc1ccc(NC(=O)c2cc(N3C(=O)C=CC3=O)ccc2N2CCOCC2)cc1Cl` , AC50 read: < 0.195 µM (active)

Assay Heat shock protein HSP 90-alpha (Homo sapiens, UniProt P07900), sample OCCOCCn1c(C2CCCN2c2nc(-c3ccc(F)cc3)cs2)nc2cc(C(F)(F)F)ccc21 (stereo not drawn) , AC50 read: 7.57 µM (active)

Assay Heat shock protein HSP 90-alpha (Homo sapiens, UniProt P07900), sample `COc1ccc(N(C(=O)c2ccncc2)S(=O)(=O)c2ccc(Cl)cc2)cc1` , AC50 read: 0.354 µM (active)

Assay Heat shock protein HSP 90-alpha (Homo sapiens, UniProt P07900), sample `O=C(Nc1nnc(-c2ccc(F)cc2)o1)c1cc(Cl)sc1Cl` , AC50 read: 1.99 µM (active)

Assay Heat shock protein HSP 90-alpha (Homo sapiens, UniProt P07900), sample `Cc1cccc(N2C(=O)C=CC2=O)c1` , AC50 read: 1.63 µM (active)

Assay Heat shock protein HSP 90-alpha (Homo sapiens, UniProt P07900), sample `CC(C)(C)c1nn(-c2ccccc2)c2nc(O)c(CNc3ccc4c(c3)OCCO4)cc12` , AC50 read: 8.3 µM (active)

Assay Heat shock protein HSP 90-alpha (Homo sapiens, UniProt P07900), sample `O=[N+]([O-])c1cnc(Sc2ccncn2)s1` , AC50 read: 1.49 µM (active)

Assay Heat shock protein HSP 90-alpha (Homo sapiens, UniProt P07900), sample `O=S(=O)(/C=C/c1ccccc1)NC1CCCCCC1` , AC50 read: 10.5 µM (active)

====

target entity: Induced myeloid leukemia cell differentiation protein Mcl-1 (Homo sapiens, UniProt Q07820)
Sequence (Q07820 whole entry): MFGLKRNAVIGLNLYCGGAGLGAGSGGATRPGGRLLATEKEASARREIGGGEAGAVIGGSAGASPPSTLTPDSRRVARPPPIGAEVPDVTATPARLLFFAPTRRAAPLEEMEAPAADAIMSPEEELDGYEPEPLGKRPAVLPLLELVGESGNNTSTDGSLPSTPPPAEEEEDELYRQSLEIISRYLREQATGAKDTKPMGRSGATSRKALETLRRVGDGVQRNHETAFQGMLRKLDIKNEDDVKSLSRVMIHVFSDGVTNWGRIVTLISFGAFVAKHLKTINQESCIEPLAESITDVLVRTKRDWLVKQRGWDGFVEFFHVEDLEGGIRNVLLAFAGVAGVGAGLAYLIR
Assay type: functional
Activity calls are given as the source filed them.
readout label: IC50

Record `Cc1ccc(/C=C2\SC(=S)N(/N=C/c3cc([N+](=O)[O-])ccc3O)C2=O)o1` . Reported IC50: 1530 nM (active)

Record `CN(C)S(=O)(=O)c1cccc(NC(=S)N/N=C/c2ccc(O)c(O)c2O)c1` . Reported IC50: 1170 nM (active)

Record `O=C(O)CCCN1C(=O)/C(=C/C=C/c2ccco2)SC1=S` . Reported IC50: 19300 nM (not active)

Record `Oc1ccc(N2CCN(c3ncnc4sc(-c5ccccc5)cc34)CC2)cc1` . Reported IC50: 1430 nM (active)

Record `Cc1cc(N/N=C/c2ccc(O)c(C)c2O)nc(-c2ccccc2O)n1` . Reported IC50: 3300 nM (active)

====

Hi there, I'd appreciate the recorded EC50 for every entry that follows.
test protocol: growth suppression of PTEN-null colon cells, dose response, cell-based, HCT116 PTEN knockout (AID 1047);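 note: HCT116 colon tumor cells with PTEN knocked out; cells exposed to compound for 60 hours before readout; potency for loss of cell viability measured by luminescence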
Assay type: functional
Calls of active or inactive are those of the source.

Record `COc1ccc(CCNC(=O)c2c(N)n(CCN3CCOCC3)c3nc4ccccc4nc23)cc1OC` . Reported EC50: 94.9 µM (active)

Record `O=C(Nc1ccc(F)cc1)c1nc[nH]c1C(=O)Nc1ccc([N+](=O)[O-])cc1` . Reported EC50: 17.6 µM (active)

Record `Cc1ccc(Cn2nc(C)c(NC(=O)CSc3nc4c(c(C(F)(F)F)n3)CCc3ccccc3-4)c2C)cc1` . Reported EC50: 21 µM (active)

Record `CCOc1cc(CNC2CCCC2)cc(Cl)c1OCc1ccc(F)cc1` . Reported EC50: 16.1 µM (active)

Record `O=C(c1ccc(COc2c(F)c(F)cc(F)c2F)o1)N1CCN(c2ccc(Cl)cc2)CC1` . Reported EC50: 21.5 µM (active)

Record `O=C(Nc1cc(S(=O)(=O)Nc2ccc(Cl)cc2)ccc1N1CCCCC1)c1ccc(F)cc1` . Reported EC50: 29.4 µM (active)

Record CCOC(=O)c1c(NC(=O)C2COc3ccccc3O2)sc2c1CC(C)(C)NC2(C)C (centres undefined) . Reported EC50: 10.6 µM (active)

Record COc1ccc(OCC(O)Cn2c(=N)n(Cc3ccccc3)c3ccccc32)cc1 (centres undefined) . Reported EC50: 7.31 µM (active)

Record `COC(=O)c1ccc2c(=O)n(Cc3ccco3)c(SCC(=O)Nc3ccccc3Cl)nc2c1` . Reported EC50: 37.5 µM (active)

====

target entity: Sentrin-specific protease 6 (Homo sapiens, UniProt Q9GZR1);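 note: Luminescence-based dose-response confirmatory assay of SENP6 inhibition, following up an ultra-high-throughput screen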
Sequence (Q9GZR1 whole entry): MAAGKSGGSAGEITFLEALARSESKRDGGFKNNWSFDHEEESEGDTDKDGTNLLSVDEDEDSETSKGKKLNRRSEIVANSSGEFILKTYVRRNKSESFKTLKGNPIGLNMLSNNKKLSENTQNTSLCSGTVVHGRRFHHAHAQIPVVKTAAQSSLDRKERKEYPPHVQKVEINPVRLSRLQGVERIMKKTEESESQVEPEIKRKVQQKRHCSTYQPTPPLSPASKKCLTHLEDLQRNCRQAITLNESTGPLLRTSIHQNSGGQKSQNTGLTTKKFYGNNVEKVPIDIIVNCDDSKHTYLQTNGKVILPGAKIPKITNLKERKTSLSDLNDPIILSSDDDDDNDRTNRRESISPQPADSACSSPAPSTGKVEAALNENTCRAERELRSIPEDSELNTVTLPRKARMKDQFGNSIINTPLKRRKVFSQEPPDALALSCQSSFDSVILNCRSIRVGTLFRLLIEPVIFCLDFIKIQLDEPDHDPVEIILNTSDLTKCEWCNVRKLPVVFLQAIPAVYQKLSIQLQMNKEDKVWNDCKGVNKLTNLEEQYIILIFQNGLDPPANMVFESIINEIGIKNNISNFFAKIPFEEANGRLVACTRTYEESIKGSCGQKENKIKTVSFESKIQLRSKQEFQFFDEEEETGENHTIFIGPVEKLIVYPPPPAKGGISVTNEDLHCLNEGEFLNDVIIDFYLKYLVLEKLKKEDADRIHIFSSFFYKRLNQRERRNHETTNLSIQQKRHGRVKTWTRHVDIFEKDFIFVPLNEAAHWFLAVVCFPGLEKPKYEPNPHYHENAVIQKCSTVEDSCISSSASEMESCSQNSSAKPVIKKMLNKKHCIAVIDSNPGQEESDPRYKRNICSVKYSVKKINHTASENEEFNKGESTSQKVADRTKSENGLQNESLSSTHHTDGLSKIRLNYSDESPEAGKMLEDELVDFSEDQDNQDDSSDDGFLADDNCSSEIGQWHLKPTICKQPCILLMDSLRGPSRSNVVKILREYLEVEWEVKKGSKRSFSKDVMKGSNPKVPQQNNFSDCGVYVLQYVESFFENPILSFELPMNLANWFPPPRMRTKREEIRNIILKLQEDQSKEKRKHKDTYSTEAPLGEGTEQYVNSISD
Type: functional
The source made the active and inactive calls.
Hi there, I'd appreciate the recorded IC50 for every entry that follows.

Record `CN(c1ccccc1)c1ccc(/C=N/N2CCOCC2)cc1` . Reported IC50: 27.3 µM (active)

Record `O=C(Nc1ccccc1Cl)Nc1cccc2cccnc12` . Reported IC50: > 100 µM (inactive)

Record `Cc1cccc(C(=O)n2c(=S)nc3cc(C)ccn32)c1` . Reported IC50: 86.4 µM (active)

Record `CCc1ccc(-c2csc(NC(=O)C3=COCCO3)n2)cc1` . Reported IC50: 27 µM (active)

Record `O=[N+]([O-])c1nn(-c2ccc3c(c2)OCCO3)[n+]([O-])c1NCc1ccccc1Cl` . Reported IC50: > 100 µM (inactive)

Record `Clc1ccc(OCc2nc(-c3ccncc3)no2)c(Cl)c1` . Reported IC50: 28.8 µM (active)

Record `COc1ccc(-c2nc3ccccc3c(=O)[nH]2)cc1` . Reported IC50: 17.3 µM (active)
